- test.description: NCI Yeast Anticancer Drug Screen. Data for the rad50 strain (AID 155);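 further: 0% = growth of vehicle-only cultures of the same strain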
- recorded.conditions: S. cerevisiae rad50 strain growth inhibition; at 50.0 µM; active compounds read high
This is part of a sample that, as a whole, favours compounds with a hit. Of some 79,000 tested, about 15% had one in any assay. The source made the active and inactive calls. No stated cut-off is given here; in the data, active means growth inhibition above about 70%; inactive means the rest.
Give measured growth inhibition for each item. Keep answers brief.

For each entry beneath this line, provide reported growth inhibition.
1. CCOC(=O)c1ccc(NC(=S)Nc2ccccc2S)cc1
2. CCCCCCCCCCCCCCCOc1cc(OC)ccc1-c1nnc(SC)s1
3. CCC(=O)Oc1ccc[nH]c1=O
4. CCCCOC(=O)c1ccc(OC(=O)Nc2ccccc2)cc1

OUT:
1: 16.4% (inactive); 2: -15.2% (inactive); 3: 1.8% (inactive); 4: 11.2% (inactive)

For each entry beneath this line, provide reported growth inhibition.
1. CC(O)CCC(O)CCCO (stereo not drawn)
2. COC(=O)c1ccc(N=NN(C)COC(C)=O)cc1

OUT:
7.8% (inactive)
27.4% (inactive)

For each entry beneath this line, provide reported growth inhibition.
1. Clc1ccc2c(c1)CCc1cccnc1C2=C1CCNCC1
2. Cc1ccc2c(c1)C(=O)/C(=N/Nc1ccc(Cl)cc1)CCO2
3. Cn1nnnc1/C(=C/c1ccccc1)C(=O)O
4. CCOC(=O)/C=C/c1cccc(F)c1
5. c1ccc(CN2CCC(N3CCCC3)CC2)cc1
6. CCC1Cc2ccccc2OC1=O (stereo not drawn)

OUT:
1. 8.55% (inactive)
2. 7.65% (inactive)
3. 12.9% (inactive)
4. 19.2% (inactive)
5. -22.7% (inactive)
6. 10.9% (inactive)

IN: Consider the compound CCN(CC)CCSc1nnc(-c2cc(OC)c(OC)c(OC)c2)o1 . State its measured growth inhibition.
OUT: 32.5% (inactive)

###

- test.description: NCI Yeast Anticancer Drug Screen. Data for the bub3 strain (AID 167)
- recorded.conditions: S. cerevisiae bub3 mutant strain, at 50.0 µM, active compounds read high
This is part of a sample that, as a whole, favours compounds with a hit. Of some 79,000 tested, about 15% had one in any assay. Active and inactive are the calls of the source. Rule as the data show it: active = growth inhibition above about 70%; inactive = the rest.
measurement.kind: growth inhibition

Example entries and their recorded answers appear below.
>  <compound>
CC1=C(C)C(N(C)C)CS(=O)(=O)O1 (stereo unspecified)

>  <measurement.kind>
growth inhibition

>  <value.measured>
-11.2% (inactive)

$$$$
>  <compound>
CCc1nc(N)nc(N)c1-c1ccc2c(c1)nnn2C

>  <measurement.kind>
growth inhibition

>  <value.measured>
11.6% (inactive)

$$$$
>  <compound>
CC(C)(C)C1CCC2c3c([nH]c4ccccc34)C3C(=O)N(c4ccc(Cl)cc4)C(=O)C3C2C1 (stereo unspecified)

>  <measurement.kind>
growth inhibition

>  <value.measured>
-25.4% (inactive)

$$$$

For each entry beneath this line, provide reported growth inhibition.
1. C/C(=N\Nc1ccc([N+](=O)[O-])cn1)c1ccccn1
2. CCOC(=O)c1[nH]c(C)cc1C
3. C=C(C)C(=O)O[C@H]1C[C@@]23O[C@@H]2CCC(=C[C@H]2OC(=O)C(=C)[C@H]12)COC3O (stereo partly specified)
4. C=CCC1=C2CCCCC2CCC1=O (stereo unspecified)

OUT:
1. 12.2% (inactive)
2. -22.4% (inactive)
3. 7.7% (inactive)
4. -11% (inactive)

For each entry beneath this line, provide reported growth inhibition.
1. CCOC(=O)c1ccc(NC(=S)NC(=O)c2cccs2)o1
2. O=C(O)c1cc(O)[nH]c(=O)c1
3. O=C(O)CC1SC2(C(=O)N(Cc3ccccc3)c3ccccc32)N(c2ccccc2)C1=O (stereo unspecified)
4. COc1ccc(/C=C/C(=O)C(C)(CN(C)C)CN(C)C)cc1

OUT:
31.2% (inactive)
-26% (inactive)
8.55% (inactive)
-11.2% (inactive)

###

- test.description: NCI Yeast Anticancer Drug Screen. Data for the sgs1 mgt1 strain (AID 161);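 further: 0% = growth of cultures given vehicle only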
- recorded.conditions: S. cerevisiae sgs1 mgt1 strain, at 50.0 µM, active compounds read high
- Method: Growth inhibition of yeast strains with defined genetic alterations is measured as a screen for potential anti-cancer activity. Selected strains with alterations in DNA damage repair or cell cycle control were exposed to compounds and growth inhibition was measured relative to vehicle treated controls. The strain used in this assay is sgs1 mgt1
Compounds without any hit were thinned out: in the full panel of roughly 79,000, 15% have a hit.
Give measured growth inhibition for each item. Keep answers brief.
Give bare numbers, in %.

Example entries and their recorded answers appear below.
>  <compound>
NC(CSS(=O)(=O)CC(N)C(=O)O)C(=O)O (stereo unspecified)

>  <measurement.kind>
growth inhibition

>  <value.measured>
6.15

$$$$
>  <compound>
NC(=O)CCN(CCC(N)=O)CCC(N)=O

>  <measurement.kind>
growth inhibition

>  <value.measured>
-3.3

$$$$
>  <compound>
CCOC(OCC)c1ccccc1C

>  <measurement.kind>
growth inhibition

>  <value.measured>
8.25

$$$$
>  <compound>
COC(=O)C(CC(=O)[C@H]1CC[C@H]2[C@@H]3CC=C4C[C@@H](OC(C)=O)CC[C@]4(C)[C@H]3CC[C@]12C)OC(C)=O (stereo partly specified)

>  <measurement.kind>
growth inhibition

>  <value.measured>
26.7

$$$$
>  <compound>
CCN(CC)c1ccc(/C=C(\C#N)C(N)=S)cc1

>  <measurement.kind>
growth inhibition

>  <value.measured>
45.2

$$$$

For each entry beneath this line, provide reported growth inhibition.
1. N#Cc1[nH]cnc1N
2. Cc1c(Br)cc(C(=O)O)c(O)c1Br

OUT:
1. -11.3
2. 19.6

For each entry beneath this line, provide reported growth inhibition.
1. CCC(=O)C(C)C1=Nc2nnc(CCCCCCCc3nnc4n3C(=O)C(C(C)C(=O)CC)=N4)n2C1=O (stereo unspecified)
2. CCOC(=O)C(C(C)=O)C(c1ccc(N(C)C)cc1)c1ccc(N(C)C)cc1 (stereo unspecified)
3. COc1cc2c(cc1OC)C1=Cc3cc(OC)c(OC)cc3C(C)N1C=C2 (stereo unspecified)
4. O=C(NCC1(c2ccc3c(c2)OCO3)OCCO1)c1ccccc1[N+](=O)[O-]

OUT:
1. 11.8
2. -6.6
3. -26.6
4. -2.1

###

- test.description: NCI Yeast Anticancer Drug Screen. Data for the bub3 strain (AID 167)
- recorded.conditions: S. cerevisiae bub3 mutant strain, at 50.0 µM, active compounds read high
This is part of a sample that, as a whole, favours compounds with a hit. Of some 79,000 tested, about 15% had one in any assay.
Quick rule for you: growth inhibition at 10% or higher means MET, lower means NOT MET.

Some entries whose results are on file:
>  <compound>
COc1ccc(/C=N/NC(=O)c2ccc(N)cc2)c(OC)c1

>  <answer.label>
MET

$$$$
>  <compound>
COc1cc(/C=C(\C#N)c2ccccc2)cc(OC)c1

>  <answer.label>
MET

$$$$
>  <compound>
OCC1OC(n2cnc3c([Se]Cc4ccccn4)ncnc32)C(O)C1O (stereo not given)

>  <answer.label>
NOT MET

$$$$

Continue with the next compound.
IN: Tell me whether growth inhibition is at least 10% here: CNc1cc(S(=O)(=O)O)ccc1C
OUT: MET

###

Give measured growth inhibition for each item. Keep answers brief.
- test.description: NCI Yeast Anticancer Drug Screen. Data for the cln2 rad14 strain (AID 165);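 further: 0% = growth equal to vehicle treated cultures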
- recorded.conditions: S. cerevisiae cln2 rad14 strain, at 50.0 µM, active compounds read high
This is part of a sample that, as a whole, favours compounds with a hit. Of some 79,000 tested, about 15% had one in any assay.
One number for each entry, in %.

>  <compound>
O=C(NCc1ccccc1)C(O)c1ccccc1 (configuration not stated)

>  <unit.abbreviation>
%

>  <growth inhibition>
0.6

$$$$

For each entry beneath this line, provide reported growth inhibition.
1. C/C(=N\NC(=S)Nc1ccc(S(=O)(=O)O)cc1)c1ccccn1
2. CC(=S)NC(=O)Nc1cccc2ccccc12
3. Cc1cc(=O)c(C#N)c(C)o1
4. O=C1c2ccccc2C(=O)C2C1C(c1ccccc1)N(c1ccccc1)C2c1ccccc1 (configuration not stated)

OUT:
1: 19.1; 2: -50.6; 3: -2.7; 4: 5.75

###

- test.description: NCI Yeast Anticancer Drug Screen. Data for the bub3 strain (AID 167)
- recorded.conditions: S. cerevisiae bub3 mutant strain, at 50.0 µM, active compounds read high
This is part of a sample that, as a whole, favours compounds with a hit. Of some 79,000 tested, about 15% had one in any assay.
Quick rule for you: growth inhibition at 20% or higher means Condition met, lower means Condition not met.

IN: Tell me whether growth inhibition is at least 20% here: COc1cc(/C=C/c2ccccn2)oc(=O)c1
OUT: Condition not met

IN: Tell me whether growth inhibition is at least 20% here: COC1CCC(/C(C#N)=C/C2CCC(NC(C)=O)CC2)CC1 (stereo not given)
OUT: Condition met

IN: Tell me whether growth inhibition is at least 20% here: N#CCCC1(c2ccccc2)CCC/C(=C/c2ccccc2)C1=O (stereo not given)
OUT: Condition not met

IN: Tell me whether growth inhibition is at least 20% here: O=C(CC(=O)c1ccccc1)Cc1ccccc1.O=C(CC(=O)c1ccccc1)Cc1ccccc1.[Cu]
OUT: Condition not met

IN: Tell me whether growth inhibition is at least 20% here: CCCCCCO/N=C\c1c2c(O)c3c(O)c(C)c4c(c3c1O)C(=O)C(C)(O/C=C\C(OC)C(C)C(OC(C)=O)C(C)C(O)C(C)C(O)C(C)/C=C\C=C(\C)C(=O)N2)O4 (stereo not given)
OUT: Condition met

FYI, the data here is from PubChem BioAssay (NCI).
